- ASSAY_NOTES: Toxicity liver stage against HepG2, at 10uM
- Type: cell-based
- Design: test concentration 10 uM, cell line HepG2-A16-CD81EGFP
- CONDITION_NOTES: human, HepG2-A16-CD81EGFP cells; read-out: INHIBITION
Parameter: cytotoxicity at 10 µM. Scope: all listed entries.

| COMPOUND | cytotoxicity at 10 µM (%) |
| --- | --- |
| CC(c1nc(C2CC2)no1)N1CCN(Cc2ccccc2F)CC1 (stereo unspecified) | 1.03 |
| Cc1cnn(CCC(=O)N2CCN(C(=O)C(C)C)[C@@H]3CS(=O)(=O)C[C@@H]32)c1 | 2.47 |
| Cc1nn(C)c(C)c1-c1ccc(=O)n(C(C)C(=O)NC(C)(C)C)n1 (stereo unspecified) | 5.75 |
| COC(=O)c1ccc(CNCc2cn(C)nc2C)cc1 | -8.55 |
| CN(C)C[C@H]1C[C@@H]2CN(Cc3ccco3)C[C@@H]2O1 | -1.66 |
| CC(=O)N1CCc2c(nc(-c3cccnc3)nc2N(C)CC(O)CO)C1 (stereo unspecified) | -2.03 |
| CCNC(=O)c1ccnc(N2CCCC(COc3ccccc3C)C2)c1 (stereo unspecified) | 2.08 |
| COCCC(=O)Nc1nccn1Cc1ccc(Br)cc1 | -47.2 |
| Cn1cc(C(=O)Nc2ccc3c(c2)N(C(=O)c2ccco2)CC3)nn1 | 0.529 |
| Cc1ccc(C)c(OCc2cc(C(=O)N(C)Cc3nonc3C)no2)c1 | -5.83 |
| N#Cc1cccc(NC(=O)N(CC(F)F)C2CC2)c1 | -16.1 |
